This section presents molecules with their documented melting point values.
Metric: melting point

COC(=O)[C@@H]1[C@H]2C[C@H](O)[C@@H](C[C@H]1c1ccc(F)cc1)N2C (relative stereo) [Compound 17c]
148 to 150 °C
COC(=O)[C@@H]1[C@H]2C[C@H](O)[C@@H](C[C@H]1c1ccc3ccccc3c1)N2C (relative stereo) [Compound 17b]
93.5 to 94.5 °C
COC(=O)[C@H]1[C@@H](c2ccc(Cl)c(Cl)c2)C[C@@H]2CC(=O)[C@H]1N2C (relative stereo) [Compound 19]
84.4 to 86.4 °C
COC(=O)[C@@H]1[C@H]2[C@H](O)C[C@@H](C[C@H]1c1ccc3ccccc3c1)N2C (relative stereo) [Compound 18b]
140.1 to 141.9 °C
COC(=O)[C@@H]1[C@H]2[C@H](O)C[C@@H](C[C@H]1c1ccccc1)N2C (relative stereo) [Compound 18d]
165 to 167 °C
COC(=O)[C@@H]1[C@H]2[C@H](O)C[C@@H](C[C@H]1c1ccc(Cl)c(Cl)c1)N2C (relative stereo) [Compound 18a]
148.5 to 150 °C
COC(=O)[C@H]1[C@@H](c2ccccc2)C[C@@H]2[C@@H](O)C[C@H]1N2C (relative stereo) [Compound 14d]
150 to 152 °C
COC(=O)C1=C(c2ccc(Cl)c(Cl)c2)C[C@@H]2[C@@H](O)C[C@H]1N2C (racemic) [Compound 7a]
94 to 96 °C
COC(=O)[C@@H]1[C@H]2[C@H](O)C[C@@H](C[C@@H]1c1ccccc1)N2C (racemic) [Compound 15d]
165.8 to 167.8 °C
CCC(=O)[C@@H]1[C@H]2[C@H](O)C[C@@H](C[C@H]1c1ccc(Cl)c(Cl)c1)N2C (relative stereo) [Compound 26]
113.1 to 114.1 °C
COC(=O)C1=C(c2ccc3ccccc3c2)CC2CC(O)C1N2C (stereo not drawn) [Compound 8b]
164.2 to 165.2 °C
COC(=O)C1C(c2ccc(Cl)c(Cl)c2)CC2CC(O)C1N2C (racemic) [Compound 15a]
185.5 to 186.5 °C

----------
Tgt: dopamine transporter (Macaca fascicularis)
Construct: The caudate-putamen was dissected from coronal slices and yielded 1.4±0.4 g tissue; Membranes were prepared as described previously; from tissue; host or cells: caudate-putamen membranes of cynomolgus or rhesus monkey brain
Sequence (Q9GJT6 whole entry): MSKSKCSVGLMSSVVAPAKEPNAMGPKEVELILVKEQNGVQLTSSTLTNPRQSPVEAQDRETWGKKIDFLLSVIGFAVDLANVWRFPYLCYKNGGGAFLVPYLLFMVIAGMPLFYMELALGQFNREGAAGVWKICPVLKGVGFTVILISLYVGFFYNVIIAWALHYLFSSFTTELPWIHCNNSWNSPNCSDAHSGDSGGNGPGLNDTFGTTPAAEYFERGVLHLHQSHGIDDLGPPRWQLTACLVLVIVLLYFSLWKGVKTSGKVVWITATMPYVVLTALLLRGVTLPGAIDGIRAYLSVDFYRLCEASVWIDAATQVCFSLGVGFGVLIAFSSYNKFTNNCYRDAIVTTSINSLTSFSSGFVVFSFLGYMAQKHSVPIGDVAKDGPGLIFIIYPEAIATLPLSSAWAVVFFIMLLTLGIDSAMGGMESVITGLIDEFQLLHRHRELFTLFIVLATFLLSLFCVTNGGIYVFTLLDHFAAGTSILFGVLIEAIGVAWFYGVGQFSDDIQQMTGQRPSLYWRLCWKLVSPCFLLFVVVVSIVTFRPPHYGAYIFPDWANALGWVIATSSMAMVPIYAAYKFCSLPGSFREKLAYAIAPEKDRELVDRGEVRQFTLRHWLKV
Procedure text: Dopamine transporter assay: inhibition of {3H}WIN 35,428 binding in caudate-putamen membranes
Parameters: species or system rhesus or cynomolgus monkey
Test conditions: IC50 (nM) DAT, inhibition of {3H}WIN 35,428 binding, monkey caudate-putamen; mean of 2 or more independent experiments in triplicate
Property: IC50; scope: individual molecules
Metric: IC50

COC(=O)C1C(c2ccc(Cl)c(Cl)c2)CC2CC(O)C1N2C (single isomer, unassigned) [(1S)-15a]
0.3 to 7.4 nM
COC(=O)C1C(c2ccc(Cl)c(Cl)c2)CC2CC(O)C1N2C (single isomer, unassigned) [Compound (1S)-18a]
0.3 to 7.4 nM
COC(=O)C1=C(c2ccc(Cl)c(Cl)c2)C[C@H]2C[C@H](O)[C@@H]1N2C
265 to 2690 nM
COC(=O)C1C(c2ccc(Cl)c(Cl)c2)CC2CC(O)C1N2C (single isomer, unassigned) [(1R)-15a]
265 to 2690 nM
COC(=O)C1C(c2ccc(Cl)c(Cl)c2)CC2CC(O)C1N2C (single isomer, unassigned) [Compound (1R)-18a]
265 to 2690 nM
